- Tested on: Escherichia coli TOP10;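 further: peptides expressed intracellularly from a pBAD plasmid library in pooled LB shake-flask culture, induced with 0.3% L-arabinose, DNA abundance read by NGS, three biological replicates, DESeq2 with apeglm shrinkage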
- assay overview: shrunken log2 fold change of peptide-encoding DNA abundance (4.5 h post-induction vs induction); higher = less antimicrobial activity (less host growth inhibition)
- condition parameters: time post-induction: 4.5 h; library: site-saturation at positions 5, 18, 19, 20
Lab note: compare shrunken log2 fold change against 0.04. Equal or greater, write YES. Smaller, write NO.

- query sequence: "RRIRRRPPRLPRPRPRPHIWPRP"
  label class: "NO"
- query sequence: "RRIRQRPPRLPRPRPRPKSWPRP"
  label class: "YES"
- query sequence: "RRIRWRPPRLPRPRPRPMAHPRP"
  label class: "YES"
- query sequence: "RRIRRRPPRLPRPRPRPNRYPRP"
  label class: "NO"
- query sequence: "RRIRIRPPRLPRPRPRPYIRPRP"
  label class: "NO"
- query sequence: "RRIRQRPPRLPRPRPRPVKNPRP"
  label class: "YES"

# credit: the supplement of paper PMC9112550
